The measured values listed here are drawn from PubChem BioAssay.

- experimental system: Pantothenate synthetase (Mycobacterium tuberculosis (strain ATCC 25618 / H37Rv))
- assay explanation: Coupled enzyme confirmation of inhibitors against recombinant Mtb PanC (AID 375);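 further: 0% = full reaction with vehicle and 100% = no enzyme background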
- details: coupled enzyme assay; at 10 µM, hits give high values
Reported inhibition is given for each of the following compounds.
measured attribute: inhibition (%)

INSERT INTO measurements (compound, experimental_value) VALUES
  ('CC(C)OCCCNC(=O)c1cc2c(s1)CS(=O)(=O)C2', 0),
  ('O=C(c1cnn2c(C(F)F)cc(-c3ccccc3)nc12)N1CCN2CCCC2C1 (stereo not drawn)', 0),
  ('CCOC(=O)CCC(=O)O[C@H]1[C@H](O[C@@H]2[C@@H](C)[C@H](O[C@H]3C[C@@](C)(OC)[C@@H](O)[C@H](C)O3)[C@@H](C)C(=O)O[C@H](CC)[C@@](C)(O)[C@H](O)[C@@H](C)C(=O)[C@H](C)C[C@@]2(C)O)O[C@H](C)C[C@@H]1N(C)C', 0);

---

- experimental system: Pantothenate synthetase (Mycobacterium tuberculosis (strain ATCC 25618 / H37Rv))
- assay explanation: Coupled enzyme confirmation of inhibitors against recombinant Mtb PanC (AID 375);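 further: 0% = full reaction with vehicle and 100% = no enzyme background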
- details: coupled enzyme assay; at 10 µM, hits give high values
measured attribute: inhibition (%)

INSERT INTO results (compound, output_unit, experimental_value) VALUES
  ('c1ccc2c3nnc4n(c-3nc2c1)CCCS4', '%', 1),
  ('CCOC(=O)C1CCN(C(=O)CN(c2ccc(Cl)c(C(F)(F)F)c2)S(C)(=O)=O)CC1', '%', 4),
  ('CC1(C)Cc2noc(N)c2C(C)(C)N1OC(=O)c1ccco1', '%', 0),
  ('Cc1ccc(-n2c3c(cc(C(=O)NC4CCSC4=O)c2=O)C(=O)CC(C)(C)C3)cc1 (stereo unspecified)', '%', 0),
  ('CCCSc1nc(N)c(C#N)c(-c2ccc(C)cc2)c1C#N', '%', 2),
  ('C[C@@H]1C[C@H]2[C@@H]3CCC4=CC(=O)C=C[C@]4(C)[C@@]3(F)[C@@H](O)C[C@]2(C)[C@H]1C(=O)CO', '%', 1);

---

- experimental system: Pantothenate synthetase (Mycobacterium tuberculosis (strain ATCC 25618 / H37Rv)) (UniProt P9WIL5)
- Sequence (P9WIL5 whole entry, looked up): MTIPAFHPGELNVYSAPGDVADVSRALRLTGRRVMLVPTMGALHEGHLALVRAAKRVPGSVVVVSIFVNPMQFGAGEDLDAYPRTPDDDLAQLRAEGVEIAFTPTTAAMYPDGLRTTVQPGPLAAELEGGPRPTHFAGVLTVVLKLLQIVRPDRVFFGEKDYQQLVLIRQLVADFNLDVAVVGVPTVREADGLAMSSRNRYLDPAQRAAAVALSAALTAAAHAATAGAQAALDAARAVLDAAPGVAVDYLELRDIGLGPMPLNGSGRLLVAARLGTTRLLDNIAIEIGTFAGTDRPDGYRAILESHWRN
- assay explanation: Coupled enzyme confirmation of inhibitors against recombinant Mtb PanC (AID 375);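 further: 0% = full reaction with vehicle and 100% = no enzyme background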
- details: coupled enzyme assay; at 10 µM, hits give high values
measured attribute: inhibition (%)

INSERT INTO results (compound, experimental_value) VALUES
  ('CCOc1ccc(Cn2nnc(C(=O)Nc3cc(C)cc(C)c3)c2N)cc1', 0),
  ('CCOCCCNC(=O)c1c[nH]c2ccc(S(=O)(=O)Nc3cccc(OC)c3)cc2c1=O', 0),
  ('COC(=O)c1ccc(NC(=O)C(C)N2C(=O)c3ccccc3C2=O)cc1 (stereo not given)', 8),
  ('CCSc1nnc(NC(=O)CSc2nnc(Cc3cccn3C)n2-c2ccc(C)cc2)s1', 5),
  ('COC(=O)c1ccc(NC(=O)CN2CCCC2)cc1', 0),
  ('CC(C)CCNC(=O)NC(=O)CN1C(=O)NC2(CCCCC2)C1=O', 2),
  ('Cc1[nH]nc2c1C1(C(=O)N(Cc3ccc(Cl)cc3)c3ccccc31)C(C#N)=C(N)O2 (stereo not given)', 0),
  ('O=C1CC(c2ccccc2)CC(O)=C1C=NCCCN1CCOCC1 (stereo not given)', 5),
  ('Cc1noc(C)c1CSc1nnc(-c2ccncc2)n1-c1cccc(Cl)c1C', 0),
  ('C=CCn1c(SCc2cc(=O)n3ccsc3n2)nnc1C1CCCCC1', 0),
  ('CCCCC(CC)C(=O)Nc1ccccc1C#N (stereo not given)', 0),
  ('CCCCCCn1c(CN2CCCC(C)C2)nc2c1c(=O)n(C)c(=O)n2C (stereo not given)', 6),
  ('COc1ccc(C2=NOC(C(=O)NC3CCCCC3)C2)cc1OC (stereo not given)', 2),
  ('Cc1cccc(C(=O)N2CCC(n3nnc4cc(F)ccc43)CC2)c1', 0),
  ('C=CCOc1ccc(C2/C(=C(\O)c3c(C)[nH]c(C(=O)OC)c3C)C(=O)C(=O)N2CCN(C)C)cc1 (stereo not given)', 0),
  ('Cc1ccc(S(=O)(=O)c2nc(-c3ccco3)oc2SCC(=O)NCC2CCCO2)cc1 (stereo not given)', 0),
  ('O=P(CCNCc1ccco1)(c1ccccc1)c1ccccc1', 0),
  ('CC(=O)[C@@]1(O)CC[C@H]2[C@@H]3C[C@H](C)C4=CC(=O)C=C[C@]4(C)[C@@]3(F)[C@@H](O)C[C@@]21C', 6),
  ('CN1CCN(C(=O)OC2c3nccnc3C(=O)N2c2ccc(Cl)cn2)CC1 (stereo not given)', 8),
  ('CCOC(=O)c1c(N)nn(C(=O)C(C)C)c1-c1ccccc1', 0),
  ('O=C(CN1C(=O)NC(Cc2ccccc2)C1=O)Nc1ccccc1 (stereo not given)', 0),
  ('COc1ccc(C)cc1NC(=O)CSc1nnnn1Cc1ccccc1', 2),
  ('Cc1ccc2nc(N3CCN(C)CC3)[nH]c2c1', 0),
  ('CCOC(=O)c1ccccc1NC(=O)c1c(O)c2ccccc2n(CC)c1=O', 0),
  ('COc1cc(OC)cc(-c2nc3cc(C)ccc3o2)c1', 3),
  ('O=c1c[n+]([O-])c2ccccc2n1OCc1ccccn1', 4),
  ('c1ccc2c(c1)CNC1(CCCCC1)C2', 3),
  ('CCOC(=O)CNS(=O)(=O)c1c(C)noc1C', 0),
  ('CN(Cc1nc(-c2ccncc2)no1)S(=O)(=O)c1ccc(Cl)cc1', 0),
  ('CCOC(=O)N1CCN(c2c(NCCN(C)Cc3ccccc3)c(=O)c2=O)CC1', 0),
  ('CN(C)C(CNC(=O)Nc1cccc(Cl)c1)c1cccnc1 (stereo not given)', 0),
  ('NCC(CC(=O)O)c1ccc(Cl)cc1 (stereo not given)', 0),
  ('CN(Cc1cccs1)c1ncnc2sccc12', 0),
  ('Cc1ccc(N(C)C(=O)N2CCN(c3ccccn3)CC2)cc1', 0),
  ('Cc1ccc(-n2c(N)c(C(N)=O)sc2=S)cc1', 6),
  ('COc1ccc(C)cc1NC(=O)CCN1CCCC1', 0),
  ('CC(C(=O)NC1CCCCCC1)N(c1ccccc1)S(C)(=O)=O (stereo not given)', 0),
  ('c1ccc(Cn2ncc3c2ncn2c(-c4ccncc4)nnc32)cc1', 0),
  ('O=C(C1CCN(c2nnc(-n3cccc3)s2)CC1)N1CCN(Cc2ccc3c(c2)OCO3)CC1', 10),
  ('CC(=O)c1c(C)oc2ccc(NS(=O)(=O)c3ccc(O)c(C(=O)O)c3)cc12', 4),
  ('CN(C)CCCN1C(=O)CSC1c1ccccc1 (stereo not given)', 0),
  ('CN(CC(O)COc1ccc(OCC(O)CN(C)C2CCCCC2)cc1)C1CCCCC1 (stereo not given)', 4),
  ('CCCNC(=O)C1=C(C)C(=O)OC12CCC(C)CC2 (stereo not given)', 0),
  ('CCOC(=O)c1[nH]c(C)c(C(=O)Nc2cc(OC)ccc2OC)c1C', 0),
  ('Cc1cc(O)c(-c2cc(C(=O)Nc3ccc(S(=O)(=O)N4CCOCC4)cc3)[nH]n2)cc1C', 0);

---

Measured inhibition of individual entries
- experimental system: Pantothenate synthetase (Mycobacterium tuberculosis (strain ATCC 25618 / H37Rv))
- assay explanation: Coupled enzyme confirmation of inhibitors against recombinant Mtb PanC (AID 375);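 further: 0% = full reaction with vehicle and 100% = no enzyme background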
- details: coupled enzyme assay; at 10 µM, hits give high values
measured attribute: inhibition (%)

INSERT INTO measurements (molecule, experimental_value) VALUES
  ('O=C(Nc1ccc2c(c1)OCO2)N1CCN(c2ncccn2)CC1', 0),
  ('Cc1cccc2cc(CN(CCN3CCCC3)C(=O)NC3CCCCC3)c(=O)[nH]c12', 0),
  ('O=C(CSc1nc2c(c(=O)n1-c1ccc(F)cc1)SCC2)NCC1CCCO1 (configuration not stated)', 6),
  ('O=C(Nc1cccnc1)Nc1ccc2c(c1)OCO2', 0),
  ('O=C(NCC1CCCO1)C1CCCN(Cc2cnn(-c3ccccc3)c2-n2cccc2)C1 (configuration not stated)', 0),
  ('COCC(=O)N(Cc1ccccc1)c1ccccn1', 4),
  ('O=C(CN1CCN(Cc2ccccc2F)C1=O)NCc1cccnc1', 0),
  ('COc1ccc(S(=O)(=O)N2CCN(CC(=O)Nc3ccc(C)c(F)c3)CC2)cc1', 0),
  ('CN1CCC(=C2c3ccccc3CC(=O)c3sccc32)CC1', 2),
  ('CC(NS(=O)(=O)c1ccccc1)C(c1cccs1)N1CCN(C)CC1 (configuration not stated)', 4),
  ('CCOc1ccccc1N(CC(=O)N1CCCCCC1)S(C)(=O)=O', 0),
  ('CCn1c(SCC(=O)Nc2ccc3c(c2)OCO3)nc2c(c1=O)SC(C)C2 (configuration not stated)', 0),
  ('CCN1CCN(Cc2cc(Br)cc(OC)c2O)CC1', 7),
  ('COC(=O)c1c(NC(=O)c2ccc(S(=O)(=O)N3CCOCC3)cc2)sc2c1CCN(C)C2', 0),
  ('Cc1ccc(OCC(=O)N2CCN(C(=O)CCC3CCCC3)CC2)cc1', 0),
  ('CC[N+](C)(C)Cc1ccccc1Br', 0),
  ('COc1ccc(CCNC(=O)C2CCN(C(=O)N(C)C)CC2)cc1OC', 0),
  ('CC1c2nc3ccccc3n2C(CC(=O)NCc2ccccn2)C(=O)N1Cc1ccccc1 (configuration not stated)', 0),
  ('COc1ccc(CN(C(=O)CSc2nnc(-c3ccccc3F)o2)c2ccc(F)cc2)cc1', 0),
  ('COc1ccc(CNc2nc3nc(C)cc(C)n3n2)cc1OC', 1),
  ('O=C(CSc1nnnn1-c1ccc2c(c1)OCO2)NCc1cccs1', 0),
  ('O=C(c1cccs1)N1CCc2ccccc21', 0),
  ('O=C(c1ccc2snnc2c1)N1CCOCC1', 3),
  ('COc1cccc(-c2nc(CS(=O)(=O)CC(=O)N3CCc4ccccc4C3)c(C)o2)c1', 4),
  ('CCS(=O)(=O)c1ccc(S(=O)(=O)CC)s1', 0),
  ('COC(=O)[C@H](C)NC(=O)Nc1cc(OC)ccc1OC', 0),
  ('COc1cc(C)nc(NS(=O)(=O)c2ccc(C)cc2)n1', 5),
  ('CC(OC(=O)C1CC=CCC1C(N)=O)C(Cl)=C(Cl)Cl (configuration not stated)', 0),
  ('c1ccc(CN2CCN(CCCNc3ccc4nnc(-c5ccccc5)n4n3)CC2)cc1', 10),
  ('Cc1ccc2nc(C(F)(F)F)c(C#N)c(N)c2c1', 7),
  ('Cc1cccc(C2CC(c3ccc(Br)cc3)Nc3nc(N)nn32)c1 (configuration not stated)', 0),
  ('CCOC(=O)C1C2C=CC3(CN(Cc4ccco4)C(=O)C13)O2 (configuration not stated)', 0),
  ('CNC(=O)CN(c1cc(C)ccc1OC)S(=O)(=O)c1ccc(C)cc1', 3),
  ('CCCCNC(=O)NS(=O)(=O)c1ccc(C)cc1', 0),
  ('O=C(C1CCN(c2nnnn2-c2ccccc2)CC1)N1CCN(c2ccccc2)CC1', 0),
  ('COc1ccc(CN(C)CC(=O)c2c(N)n(Cc3ccccc3)c(=O)n(C)c2=O)c(OC)c1', 0),
  ('CCc1cc(=O)oc2cc(OC(C)=O)cc(OC(C)=O)c12', 0),
  ('c1ccc(-c2noc(C3CCCCC3)n2)nc1', 0),
  ('O=C(CCC1COc2ccccc2O1)NCC1COc2ccccc2O1 (configuration not stated)', 0),
  ('CC1(C)CC(=O)C(CC2=C(O)CC(C)(C)CC2=O)=C(O)C1', 4),
  ('COc1ccccc1CN1CC(C(=O)NCc2cccnc2)CC1=O (configuration not stated)', 2),
  ('CCN1CCN(c2nc3c(c(=O)n(C)c(=O)n3C)n2Cc2cccc3ccccc23)CC1', 0),
  ('CCOC(=O)C1=C(C)N(C)C(=O)NC1c1ccccc1OC (configuration not stated)', 0),
  ('CCc1nc(SCC(=O)Nc2nccs2)c2oc3ccccc3c2n1', 0),
  ('Cc1oc2cc(O)ccc2c(=O)c1-c1cnn(-c2ccccc2)c1', 5),
  ('OC(CCN1CCCC1)(c1ccccc1)C1CCCCC1 (configuration not stated)', 1),
  ('COc1ccc(S(=O)(=O)N(CCN2CCOCC2)Cc2cc(OC)ccc2OC)cc1', 4);
